Where these numbers come from: PubChem BioAssay (NCI)

Tested on: HCC-2998 colon
Assay: NCI tumour cell line growth inhibition, 48 h; in the data active = GI50 below about 0.43 µM; inactive = the rest
Field 'call' accepts active, inactive

Status in this test for CC1=C(Nc2ccc(N3CCN(C)CC3)cc2)C(=O)c2cncnc2C1=O ? inactive

Status in this test for c1ccc2c3c([nH]c2c1)C(c1ccc(C2NCCc4c2[nH]c2ccccc42)cc1)NCC3 (centres undefined) ? active

====

Quick list: TGI per entry.
System: SF-268 CNS
Assay: NCI tumour cell line growth inhibition, 48 h

CC(=O)[CH-]C(=O)c1ccccc1.CC(=O)[CH-]C(=O)c1ccccc1.C[C@]12CCC(=O)C=C1CC[C@@H]1C2CC[C@@]2(C)C1CC[C@]2(C)[O-].C[C@]12CCC(=O)C=C1CC[C@@H]1C2CC[C@@]2(C)C1CC[C@]2(C)[O-].Cl.[Ti+4] (stereo partly drawn)
75.2 µM
O=C(NNc1ccccc1)/C(=C/c1ccc2c(c1)OCO2)NC(=O)c1ccccc1
> 100 µM
CC(=O)NC(CC(C)C)C(=O)NC(Cc1ccccc1)C(=S)N1CCCC1 (stereo not drawn)
> 100 µM
CSc1c(C(=O)Nc2ccc(Cl)cc2)c(N)n(N)c(=O)c1C#N
> 100 µM
CC[C@H](C)[C@H](NC(=O)[C@H]1CCCCN1C)C(=O)N(C)[C@H](C[C@@H](OC(C)=O)c1nc(C(=O)N[C@@H](Cc2ccccc2)C[C@H](C)C(=O)O)cs1)C(C)C
> 16.5 µM

Annotate the compound CNc1ncc(-c2nnnn2-c2ccccc2)c(CN(C)C)n1 with its measured TGI. > 100 µM

Annotate the compound NC(=S)c1c(N)n(C2OC(CO)C(O)C2O)c2ncnc(N)c12 (stereo not drawn) with its measured TGI. 4.52 µM

Annotate the compound CN1C(=O)C2(c3ccccc31)N(c1ccc(Cl)cc1)C(=O)C2(c1ccccc1)c1ccccc1 (stereo not drawn) with its measured TGI. > 100 µM

Annotate the compound Cc1cc(Cl)nc(N(CCCNc2ccnc3cc(Cl)ccc23)Cc2ccco2)n1 with its measured TGI. 31.1 µM

Annotate the compound CC(=N\N)/C(C)=N/N=C(C)/C(C)=N/N=C(C)/C(C)=N/N with its measured TGI. > 100 µM

Annotate the compound C/C(=C\c1csc(C)n1)[C@@H]1C[C@@H]2O[C@@H]2CCC[C@H](C)[C@H](O)[C@@H](C)C(=O)C(C)(C)[C@@H](O)CC(=O)O1 with its measured TGI. > 100 µM

Annotate the compound CCc1nc(N)nc(N)c1-c1ccc(N2CCNCC2)cc1 with its measured TGI. > 100 µM

Annotate the compound NC(=O)NC1C(C(N)=O)N(Cc2ccccc2)C(=O)N1Cc1ccccc1 (stereo not drawn) with its measured TGI. > 100 µM

Annotate the compound COc1cc(-c2nn(-c3cccc(NC(=O)c4ccc(Cl)c(C(F)(F)F)c4)c3)cc2-c2ccncc2)ccc1Cl with its measured TGI. > 32.5 µM

Annotate the compound O=C1/C=C/[C@@H](O)[C@@H]2C[C@@H](O)C[C@H]2/C=C/CCC[C@H](C(F)(F)F)O1 with its measured TGI. > 77.8 µM

Annotate the compound CCOC(=O)c1cnc2c(C)cccc2c1Nc1ccc(C(C)=O)cc1 with its measured TGI. 64.2 µM

Annotate the compound O=C1c2cn[nH]c2C(c2ccccc2)N1c1ccccc1 (stereo not drawn) with its measured TGI. > 10 µM

Annotate the compound COc1ccc(N(C)c2nc(N)nc3sc4c(c23)CCCC4)cc1 with its measured TGI. 14.5 µM
